target: hTLR7 (Homo sapiens, UniProt Q9NYK1); test: Human TLR7 Reporter Assay; conditions: HEK-Blue hTLR7 cells, 16 hours, normalized to CL097 (6 μM) and DMSO
Sequence (Q9NYK1 27-1049): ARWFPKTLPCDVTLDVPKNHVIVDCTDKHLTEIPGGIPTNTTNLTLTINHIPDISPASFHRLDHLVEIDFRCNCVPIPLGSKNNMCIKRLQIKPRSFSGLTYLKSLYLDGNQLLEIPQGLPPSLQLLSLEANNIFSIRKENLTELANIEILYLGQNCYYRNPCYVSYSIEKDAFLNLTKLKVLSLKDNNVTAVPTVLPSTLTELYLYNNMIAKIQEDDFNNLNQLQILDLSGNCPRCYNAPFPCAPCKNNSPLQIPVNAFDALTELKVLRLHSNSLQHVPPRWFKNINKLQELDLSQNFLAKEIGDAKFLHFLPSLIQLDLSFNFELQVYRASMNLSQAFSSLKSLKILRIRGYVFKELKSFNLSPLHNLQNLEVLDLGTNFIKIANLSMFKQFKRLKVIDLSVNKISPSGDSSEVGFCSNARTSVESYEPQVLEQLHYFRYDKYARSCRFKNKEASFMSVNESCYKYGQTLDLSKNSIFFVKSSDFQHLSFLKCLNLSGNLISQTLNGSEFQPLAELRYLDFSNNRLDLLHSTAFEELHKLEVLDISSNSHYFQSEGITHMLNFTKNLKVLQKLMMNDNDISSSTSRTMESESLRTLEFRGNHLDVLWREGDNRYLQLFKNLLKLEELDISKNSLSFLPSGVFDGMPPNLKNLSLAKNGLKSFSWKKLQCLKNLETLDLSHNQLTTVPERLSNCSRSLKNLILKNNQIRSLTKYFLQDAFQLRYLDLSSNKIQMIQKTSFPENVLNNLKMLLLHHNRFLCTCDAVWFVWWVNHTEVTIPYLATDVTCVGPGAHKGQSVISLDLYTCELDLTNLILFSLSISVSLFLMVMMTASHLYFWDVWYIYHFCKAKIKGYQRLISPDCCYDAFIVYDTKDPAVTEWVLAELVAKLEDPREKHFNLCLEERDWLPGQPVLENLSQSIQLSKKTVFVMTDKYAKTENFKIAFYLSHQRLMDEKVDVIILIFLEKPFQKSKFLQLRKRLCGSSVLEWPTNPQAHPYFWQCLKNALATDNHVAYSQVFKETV
Endpoint: pEC50
Give bare numbers, as −log10 of the molar value.

| Compound | pEC50 |
| --- | --- |
| CCCCC(CCO)Nc1nc(N)nc2cn(Cc3ccccc3OC)nc12 (stereo not shown) [Compound 16] | 7.06 |
| CCC[C@H](CO)Nc1nc(N)nc2cn(Cc3ccccc3OC)nc12 | 5.56 |
| CCCCNc1nc(N)nc2cn(Cc3nc(NCCCN)ccc3OC)nc12 | 6.80 |
| CCCCNc1nc(N)nc2cn(Cc3nnc(C)o3)nc12 | 5.55 |
| CCCCNc1nc(N)nc2cn(Cc3ccc(N4CCNCC4)cc3OC)nc12 | 6.64 |

Okay, here is my list. What is pEC50 for each of these?
1. CCC[C@H](C)Nc1nc(N)nc2cn(Cc3c(OC)cc(Br)cc3OC)nc12
2. CCCCNc1nc(N)nc2cn(Cc3ncc(CNC)cc3OC)nc12

OUT:
[6.99, 6.32]

---

Would you mind telling me the reported pEC50 of each entry?
biological target: UniProt Q9NYK1; experiment: Human TLR7 Reporter Assay; settings: HEK-Blue hTLR7 cells, 16 hours, normalized to CL097 (6 μM) and DMSO
Numbers only, as −log10 of the molar value.

Some solved cases for reference:
| Molecule | pEC50 |
| --- | --- |
| CCCCNc1nc(N)nc2cn(Cc3ccc(N4CCN(C(=O)C5CCC(CN6C(=O)C=CC6=O)CC5)CC4)cc3OC)nc12 (stereo not shown) | 6.72 |
| CCCCNc1nc(N)nc2cn(Cc3ccc(C(C)N(C)C)cc3OC)nc12 (stereo not shown) [Compound 220] | 6.93 |
| CCCNC(C)c1ccc(Cn2cc3nc(N)nc(N[C@H](CO)CCC)c3n2)c(OC)c1 (stereo partly shown) [Compound 231] | 6.21 |
| CCCCNc1nc(N)nc2cn(Cc3ccc(C4CCCN4)cc3)nc12 (stereo not shown) [Compound 204] | 6.29 |
| CCCCNc1nc(N)nc2cn(Cc3ccc(C4CCCN4)cc3OC)nc12 (stereo not shown) [Compound 236] | 6.62 |

# batch size: 6; output pEC50 per entry
1. CCCCNc1nc(N)nc2cn(Cc3c(C)cccc3OC)nc12
2. CCCCNc1nc(N)nc2cn(Cc3ccc(N4CCN(C(=O)[C@H]5CC[C@H](CN)CC5)CC4)cc3OC)nc12
3. CCC(C)CNc1nc(N)nc2cn(Cc3c(OC)cccc3OC)nc12 (stereo not shown)
4. CCC[C@@H](CO)Nc1nc(N)nc2cn(Cc3c(OC)cc(CNC)cc3OC)nc12
5. CCCCNc1nc(N)nc2cn(Cc3ccc(N4CCNCC4)cn3)nc12
6. CCCCNc1nc(N)nc2cn(Cc3c(OC)cc(NCCN4C(=O)C=CC4=O)cc3OC)nc12

OUT:
1: 6.62; 2: 6.48; 3: 6.43; 4: 5.97; 5: 6.13; 6: 5.82

# batch: return pEC50 for each of the 4 molecules below
1. CCCCNc1nc(N)nc2cn(Cc3ccc(N4CC5(CN(CCN6C(=O)C=CC6=O)C5)C4)cc3OC)nc12
2. CCC[C@@H](CO)Nc1nc(N)nc2cn(Cc3ccc(N4CCN(C(=O)C5CCC(CN6C(=O)C=CC6=O)CC5)CC4)cc3OC)nc12 (stereo partly shown)
3. CCCCNc1nc(N)nc2cn(Cc3ccc(C4CCC(=O)N4)cc3)nc12 (stereo not shown) [Compound 203]
4. CCCCNc1nc(N)nc2cn(Cc3c(OC)cc(C(C)N)cc3OC)nc12 (stereo not shown) [Compound 215]

OUT:
1. 5.76
2. 5.97
3. 6.28
4. 6.32
